Numbers sourced from patent US20230090708A1.

- System: proliferating hemangioma cells
- testMethodNotes: Experiment 7: different ACEi and beta blockers on one primary cell line, MTT
- Assay type: cell-based, human
- testSettings: Homo sapiens, 72 h, 1 μM; read-out: Inhibition vs. Cells + Adjuvant at 72 Hours
observedProperty: inhibition at 1 µM (%)
Numeric only. Scale: %

Using the record for `CCOC(=O)[C@H](CCc1ccccc1)N[C@@H](C)C(=O)N1[C@H](C(=O)O)C[C@H]2CCCC[C@@H]21` , report its inhibition at 1 µM.
0.63

Fill blank: measured inhibition at 1 µM of the compound `CCOC(=O)[C@H](CCc1ccccc1)N[C@H]1CCCN2CCC[C@@H](C(=O)O)N2C1=O` is ____.
4.35

Consider the compound shown here: CC(C)NCC(O)COc1ccc(CCOCC2CC2)cc1 (stereo not shown) What is its recorded inhibition at 1 µM?
2.8
